- Test summary: Half life in dog at 1 mg/kg, iv and 10 mg/kg, po
- Type: ADME, organism-based, Canis lupus familiaris
- Protocol conditions: in vivo
Reported endpoint: half-life (h)
Give bare numbers, in h.

get_value(item= CN[C@@H]1CCN(c2cc(NCC3CC3)nc(N)n2)C1 [ADRIFORANT] , readout=half-life) returns 24

###

- Tested on: Rattus norvegicus
- Test summary: Toxicity in po dosed rat assessed as lymphoid depletion from gut for 4 days
- Type: organism-based
- Protocol conditions: in vivo, 96 h
Reported endpoint: Activity

>>> result("CN1C[C@@H]2CN(C(=N)c3nc4cc(F)c(F)cc4[nH]3)C[C@@H]2C1")
"Dose-dependent effect"
>>> result("CN1C[C@@H]2CN(C(=O)c3nc4cc(F)c(F)cc4[nH]3)C[C@@H]2C1")
"Dose-dependent effect"
>>> result("CNC1CN(c2cc(NCC(C)(C)C)nc(N)n2)C1")
"Non-toxic"
>>> result("CNC1CN(c2cc(NCCC(C)(C)C)nc(N)n2)C1")
"Non-toxic"

###

- Test summary: Ratio of drug level in blood to plasma in human
- Format: ADME
- Protocol conditions: blood and plasma
Reported endpoint: blood plasma ratio
One number for each entry.

get_value(item= CN[C@@H]1CCN(c2cc(NCC3CC3)nc(N)n2)C1 [ADRIFORANT] , readout=blood plasma ratio) returns 3

Data provenance is ChEMBL document CHEMBL1914379.
